assayExplanation: qHTS for Inhibitors of human tyrosyl-DNA phosphodiesterase 1 (TDP1): qHTS in cells in absence of CPT; further: nearly all actives have a fitted effect of over 55% in size; further: potency means the concentration at half of the fitted maximal effect
conditionParameters: DT40 Tdp1-/- hTDP1 cells, no CPT, ATP luminescence, 48 h
Screen size: about 420,000 compounds; about 64,000 (15%) were called active. Inconclusive results (about 27%) are left out. The list is a sample of the results.
assayMetric: Potency

# example entries with known answers
>  <compound>
C(=N\N1CCN(c2ccccn2)CC1)/C1=C(N2CCOCC2)C(=C/c2ccccc2)/CC1

>  <assayValue>
16.4 µM (active)

$$$$
>  <compound>
Cc1ccc(C)c(-n2c(SCC(=O)O)nc3sc4c(c3c2=O)CCCC4)c1

>  <assayValue>
inactive

$$$$
>  <compound>
Cc1nnc(NCCO)c2ccccc12

>  <assayValue>
inactive

$$$$
>  <compound>
O=C(NCc1ccccc1)C(=O)NCC(c1ccco1)S(=O)(=O)c1ccc(Cl)cc1 (configuration not stated)

>  <assayValue>
18.4 µM (active)

$$$$
>  <compound>
COc1ccc(C2NC(=O)C(=O)/C2=C(\O)c2ccc(Cl)cc2)cc1OC (configuration not stated)

>  <assayValue>
inactive

$$$$

Value lookup for Potency; key = NS(=O)(=O)c1ccc(CNC(=O)c2cccc(S(=O)(=O)N3CCc4ccccc43)c2)cc1 9.2 µM (active)

Here is the next compound: O=C(CC1SC(N2CCOCC2)=NC1=O)Nc1ccccc1F (configuration not stated) inactive

###

assayExplanation: qHTS for Inhibitors of human tyrosyl-DNA phosphodiesterase 1 (TDP1): qHTS in cells in absence of CPT; further: nearly all actives have a fitted effect of over 55% in size
conditionParameters: DT40 Tdp1-/- hTDP1 cells, no CPT, ATP luminescence, 48 h
The campaign covered roughly 420,000 compounds. About 64,000 (15%) were called active. Roughly 27% stayed inconclusive and do not appear here. Calls follow the shape of the dose curve; as a rule, active = well fitted inhibition curve with a large enough effect; inconclusive = small, poorly fitted or top-dose-only effect; inactive = flat fitted curve, though single readings scatter. Only a sample is shown.
Respond using exactly one of the listed classes: active, inactive

What did the test return for CS(=O)(=O)Nc1cccc(-c2cn3ccccc3n2)c1 ? inactive

Here is the next compound: CC(=O)CCS(=O)(=O)c1ccc(C)c(C)c1 active

Here is the next compound: CCCS(=O)(=O)Nc1cccc(-c2cn3ccsc3n2)c1 active

Here is the next compound: COCCn1c(=O)c(-c2cc(F)cc(F)c2)nc2cncnc21 inactive

Here is the next compound: O=C(O)c1ccccc1-c1ccccc1C(=O)NCc1cccnc1 inactive

###

assayExplanation: qHTS for Inhibitors of human tyrosyl-DNA phosphodiesterase 1 (TDP1): qHTS in cells in absence of CPT; further: nearly all actives have a fitted effect of over 55% in size
conditionParameters: DT40 Tdp1-/- hTDP1 cells, no CPT, ATP luminescence, 48 h
Among all 420,000 compounds or so, about 64,000 (15%) were called active. Another 27% or so got no clear call; they are omitted. The call rests on the fitted dose curve; in most records, active means well fitted inhibition curve with a large enough effect; inconclusive means small, poorly fitted or top-dose-only effect; inactive means flat fitted curve, though single readings scatter. Only a sample is shown.
Respond using exactly one of the listed classes: active, inactive

What did the test return for COCC1CCCN(C(=O)c2ccc3oc(C(C)C)nc3c2)C1 (stereo not drawn) ? inactive

Here is the next compound: COc1cccc(N(CC(=O)NC2CCCC2)C(=O)CCCC(=O)Nc2ccccn2)c1 inactive

Here is the next compound: CC(=O)c1ccc(NC(=S)N(Cc2ccccc2)C(C)C2CC2)cc1 (stereo not drawn) inactive

Here is the next compound: COC(=O)[C@]12CCCCC=C1N(Cc1ccco1)C(=O)[C@H](CC(=O)NCCCCc1ccccc1)C2 active

Here is the next compound: O=C(CSc1ncccn1)NC(=O)NCc1ccccc1 inactive

Here is the next compound: Cc1cc(C)nc(NC(=O)C(C)N2C(=O)c3ccccc3C2=O)n1 (stereo not drawn) inactive

Here is the next compound: Cc1ccc(NC(=O)C(=O)NCC(c2cccnc2)N2CCOCC2)cc1 (stereo not drawn) inactive

Here is the next compound: C=CCC1(C#N)C(=S)NC(C)=C(C(=O)OCC)C1c1ccccc1 (stereo not drawn) active

Here is the next compound: COC(=O)[C@@]12C[C@@H](CC(=O)NCCCCc3ccccc3)C(=O)N(CCc3ccc(OC)c(OC)c3)C1=CCC(C)(C)C2 active

Here is the next compound: CCOc1ccccc1NC(=O)Cn1c(=O)n(Cc2ccccc2)c(=O)c2c(C)c(C(=O)N(C)C)sc21 inactive

Here is the next compound: O=C(Nc1ccccc1)N1CCN(Cc2ccccc2)CC1 inactive

Here is the next compound: COC(=O)c1ccc(C2NC(=O)NC(C)=C2C(=O)N(C)C)cc1 (stereo not drawn) inactive

Here is the next compound: CC1(C(=O)NCc2ccccc2)CSCC(=O)N1CCCN1CCOCC1 (stereo not drawn) inactive

Here is the next compound: CCn1cc(-c2cc(C(=O)O)on2)c(C)n1 inactive

Here is the next compound: CC(=O)NCCC(=O)Nc1nc(-c2ccc3c(c2)OCCO3)cs1 inactive

Here is the next compound: CN(CCO)C(=O)c1nc[nH]c1C(=O)N(C)Cc1ccccc1 inactive

Here is the next compound: O=C(O)C(c1cccs1)C1(O)CCCCC1 (stereo not drawn) inactive

Here is the next compound: COC(=O)c1ccc(OCC(O)CN(CCO)CC(O)Cn2ccc3ccccc32)cc1 (stereo not drawn) inactive

###

assayExplanation: qHTS for Inhibitors of human tyrosyl-DNA phosphodiesterase 1 (TDP1): qHTS in cells in absence of CPT; further: nearly all actives have a fitted effect of over 55% in size
conditionParameters: DT40 Tdp1-/- hTDP1 cells, no CPT, ATP luminescence, 48 h
About 64,000 (15%) of roughly 420,000 compounds were called active. Inconclusive results (about 27%) are left out. The call rests on the fitted dose curve; in most records, active means well fitted inhibition curve with a large enough effect; inconclusive means small, poorly fitted or top-dose-only effect; inactive means flat fitted curve, though single readings scatter. The list is a sample of the results.
Respond using exactly one of the listed classes: active, inactive

What did the test return for CCCOC(=O)C1=C(C)NC2=C(C(=O)C(C(=O)OC)C(C)C2)C1c1ccc(N(C)C)cc1 (configuration not stated) ? inactive

Here is the next molecule: COCCNC(=O)c1ccc2c(c1)N=C(C)c1cc(C)ccc1S2 active

Here is the next molecule: Cc1nc2c(C(=O)NCc3ccc4c(c3)OCO4)c[nH]n2c(=O)c1Cc1ccccc1F inactive

Here is the next molecule: CCOC(=O)/C(C#N)=C/c1ccc(N2CCN(Cc3ccccc3)CC2)cc1 active

Here is the next molecule: COCCNC(=O)c1ccc(S(=O)(=O)c2ccc(Cl)cc2)c(NC(C)=O)c1 inactive

Here is the next molecule: CCOC(=O)CSc1nnc(CNC(=O)c2ccco2)n1-c1ccc(F)cc1 inactive

Here is the next molecule: CS(=O)(=O)NCc1ccc(C(=O)NCc2ccccc2)cc1 inactive

Here is the next molecule: Cn1nc(C(F)(F)F)c2cc(C(=O)N3CCOCC3)sc21 inactive

Here is the next molecule: CN(C)/C(=N\OC(=O)c1ccccc1)c1nonc1N inactive

Here is the next molecule: Cc1ccc(NC(=O)C(C)Sc2nnc(C3CC3)n2C2CC2)cc1S(=O)(=O)N1CCOCC1 (configuration not stated) inactive

Here is the next molecule: CC(=O)c1ccc(NC(c2ccc(F)cc2)c2nnc(-c3ccccc3)o2)cc1 (configuration not stated) active

Here is the next molecule: COc1cccc(-c2ccc(SCC(=O)N3CCN(c4ccccc4)CC3)nn2)c1 active

Here is the next molecule: CCc1ccccc1NS(=O)(=O)c1ccc2nc(-c3ccccc3)[nH]c2c1 active

Here is the next molecule: O=C(COC(=O)c1ccc2c(c1)OCCO2)NCc1ccccc1 inactive

Here is the next molecule: COc1ccc(Cn2cccc(NC(=O)Nc3ccc(C#N)cc3)c2=O)cc1 inactive

Here is the next molecule: Cc1ccc(OCCNC(=O)CNC(=O)c2ccc(C)c(C)c2)cc1 inactive

Here is the next molecule: CCCc1c2oc(C(=O)O)cc(=O)c2cc2c(=O)cc(C(=O)O)n(CC)c12 inactive

Here is the next molecule: O=S(=O)(NCc1ccccn1)c1ccc(F)cc1 inactive

Here is the next molecule: COc1ccc2c(Cl)c(C(=O)NCc3ccco3)sc2c1 inactive

Here is the next molecule: Cc1ccc(CNC(=O)c2ccc3c(c2)S(=O)(=O)c2ccccc2C3=O)cc1 inactive

Here is the next molecule: CCCCn1c(=S)[nH]c2ncccc2c1=O inactive

Here is the next molecule: CC(C)n1c(C(O)c2ccccc2)nc2ccccc21 (configuration not stated) inactive

Here is the next molecule: CCOC(=O)/C(C#N)=C/c1ccc(OCC(=O)Nc2ccccc2)c(OC)c1 inactive

Here is the next molecule: O=C(Cc1ccc([N+](=O)[O-])cc1)NCCc1ccc2c(c1)OCO2 inactive

Here is the next molecule: O=C1c2cccc(OCC(=O)N3N=C(c4cccs4)CC3c3ccc(F)cc3)c2CCN1Cc1ccccc1 (configuration not stated) active

Here is the next molecule: CC(=O)NC(Cc1c[nH]c2ccccc12)C(=O)O (configuration not stated) inactive

Here is the next molecule: CCOC(=O)/C(C#N)=C/c1ccc(N2CCCCC2)cc1 inactive

###

assayExplanation: qHTS for Inhibitors of human tyrosyl-DNA phosphodiesterase 1 (TDP1): qHTS in cells in absence of CPT; further: nearly all actives have a fitted effect of over 55% in size
conditionParameters: DT40 Tdp1-/- hTDP1 cells, no CPT, ATP luminescence, 48 h
Screen size: about 420,000 compounds; about 64,000 (15%) were called active. About 27% were inconclusive and are not listed. The call rests on the fitted dose curve; in most records, active means well fitted inhibition curve with a large enough effect; inconclusive means small, poorly fitted or top-dose-only effect; inactive means flat fitted curve, though single readings scatter. These entries were drawn from the full list.
Respond using exactly one of the listed classes: class 1 = active, class 0 = inactive

What did the test return for Cc1cc(C(=O)Nc2nnc(C3CC3)s2)c(C)s1 ? class 0

Here is the next molecule: Cc1n[nH]c(C)c1S(=O)(=O)N1CCCC(C(=O)NCC2COc3ccccc3O2)C1 (configuration not stated) class 0

Here is the next molecule: Cc1n[nH]c(C)c1S(=O)(=O)N1CCCC(C(=O)Nc2ccc(Br)cc2)C1 (configuration not stated) class 1

Here is the next molecule: COc1cc(OC)c(C(=O)NC2CC(C)(C)NC(C)(C)C2)cc1OC class 0

Here is the next molecule: Cc1nn(C)c(Cl)c1CN1CCC(n2nccc2NC(=O)C2CCCC2)CC1 class 0

Here is the next molecule: CC(C)c1ccc(NC(=O)C2CCCN(S(=O)(=O)c3cccnc3)C2)cc1 (configuration not stated) class 1

Here is the next molecule: CC(C)(C)n1nnnc1C(c1ccc(Cl)cc1)N1CCSCC1 (configuration not stated) class 0

Here is the next molecule: CN1c2ccc(C=O)c3c(C=O)ccc(c23)N(C)C1(C)C class 1

Here is the next molecule: COc1ccc(C(CC(=O)O)NC(=O)Cc2ccccc2)cc1 (configuration not stated) class 0

Here is the next molecule: CCCCC[C@H]1CN(C2CCCCC2)C(=O)[C@@H]1CC(=O)NCc1ccc(OC)cc1 class 1

Here is the next molecule: CC(C)CC(=O)N1CCN(Cc2ccccc2Br)CC1 class 0

Here is the next molecule: O=C(c1cccc(Br)c1)N1CCN(C2=NS(=O)(=O)c3ccccc32)CC1 class 0

Here is the next molecule: COc1ccc(CNC(=O)C2CC(c3ccc(C(F)(F)F)cc3)=NO2)cc1 (configuration not stated) class 1

Here is the next molecule: COc1ccc2oc(C(=O)NCc3ccco3)c(C)c2c1 class 0

Here is the next molecule: COc1ccc2c(Cl)c(-c3nnco3)sc2c1 class 0

Here is the next molecule: COc1ccccc1NC(=O)c1cc(N2C(=O)C3C4CCC(C4)C3C2=O)ccc1Cl (configuration not stated) class 0

Here is the next molecule: O=C(c1ccc2c(c1)N(Cc1ccc(F)cc1)C(=O)c1ccccc1S2(=O)=O)N1CCN(c2ccccn2)CC1 class 1
